MEASUREMENT DESCRIPTION: pK of pH indicators
Assay type: physicochemical
CONDITION NOTES: pH indicator
Classification field: enter Condition met for pK values not below 7, Condition not met for values below it.

Answer whether pK of Cc1cc(C2(c3cc(C)c(O)c(Br)c3)OS(=O)(=O)c3ccccc32)cc(Br)c1O [Bromocresol purple] is greater than or equal to 7.
Condition not met

Is pK at least 7? Consider O=S1(=O)OC(c2ccc(O)c(Cl)c2)(c2ccc(O)c(Cl)c2)c2ccccc21 [Chlorophenol red]
Condition not met

Textbook exercise: given the entry Cc1c(C2(c3cc(Br)c(O)c(Br)c3C)OS(=O)(=O)c3ccccc32)cc(Br)c(O)c1Br [Bromocresol green] , state whether its pK is greater than or equal to 7.
Condition not met

Decide: pK of Cc1cc(O)ccc1C1(c2ccc(O)cc2C)OS(=O)(=O)c2ccccc21 [m-Cresol purple] >= 7?
Condition met
